Tested on: primary astrocytes
Assay: Extracellular lactate quantification
Format: cell-based, mouse
Conditions: Mus musculus, Astrocyte, 1.5 h; Prestwick hits, 0-100 μM, 90 min; read-out: Lactate EC50
OBSERVATION TYPE: pEC50
# pEC50 = -log10(concentration in molar units)

**Query** Report pEC50 for C#C[C@]1(O)CC[C@H]2[C@@H]3[C@H](C)CC4=C(CCC(=O)C4)[C@H]3CC[C@@]21C please.
**Result** 5.65

====

Tested on: primary astrocytes
Experiment: Extracellular lactate quantification
Format: cell-based, mouse
Conditions: Appendix II, CDC54K library
Method: Secretion of L-lactate was determined in the extracellular medium of 96-well plated astrocytes after 90 min stimulation (at 37° C., in 5% CO2/95% air conditions) with the drug of interest. […] Levels of lactate secreted by astrocytes were measured in the extracellular medium at 90 min after stimulation with hits (molecules) from the CDC54K library.
OBSERVATION TYPE: Score Lact.

Use these answered entries as a reference point.
>  <COMPOUND>
CCNc1cc(C)nc(Nc2ccc(NC(=O)C3=CC=CC3)cc2)n1

>  <RESULT>
0.63

$$$$
>  <COMPOUND>
CC(Nc1ncnc2sccc12)c1ccccn1 (stereo not shown)

>  <RESULT>
0.58

$$$$
>  <COMPOUND>
CCc1cccc(NS(=O)(=O)c2ccc3c(c2)CCCN3C(C)=O)c1

>  <RESULT>
0.56

$$$$
>  <COMPOUND>
Cc1cccc(NC(=O)c2ccc(S(=O)(=O)Nc3ccccc3)cc2)n1

>  <RESULT>
0.51

$$$$

**Query** Look up Score Lact.: Cc1cccc(NC(=O)NC2CCN(c3nc4ccccc4n(C)c3=O)CC2)c1
**Result** 0.53

**Query** Could you tell me which Score Lact. is on file for CC(=O)Nc1cccc(NC(=O)CCc2nc(C)c(C)n2C2CCCC2)c1 ?
**Result** 0.75

====

Tested on: primary astrocytes
Test: Extracellular lactate quantification
Format: cell-based, mouse
Conditions: Appendix II, CDC54K library
Form field: Score Lact. (one value per entry).
Just the number.

The examples below pair each entry with its known result.
>  <COMPOUND>
CC(C)(C)c1cccc(CNc2ncnc3[nH]ncc23)c1

>  <Score Lact.>
0.36

$$$$
>  <COMPOUND>
COc1ccc(CCNc2ncnc3c2cnn3C)cc1

>  <Score Lact.>
0.70

$$$$
>  <COMPOUND>
CCc1ccccc1NC(=O)CN(C)c1nccc2c1oc1ccccc12

>  <Score Lact.>
0.8

$$$$

Attention now shifts to the item below.
**Query** For the compound shown here, CC1=C(C)c2c(N)nc(CCc3nc4ccccc4[nH]3)nc2C1 , give the reported Score Lact..
**Result** 0.74

====

Test system: primary astrocytes
Experiment: Extracellular lactate quantification
Type: cell-based, mouse
Settings: Appendix II, CDC54K library
OBSERVATION TYPE: Score Lact.

**Query** Look at this compound and give its reported Score Lact.. Cc1noc2ncnc(NC(C)CCc3ccccc3)c12 (centres unmarked)
**Result** 0.55

**Query** Requested read-out: Score Lact.. Entry: CCc1c(C)nc2ncnn2c1NC1CCCCC1
**Result** 0.83

**Query** # lookup: Score Lact. of O=c1[nH]nc(SCCOc2ccc(Br)cc2)n1C1CC1
**Result** 0.53

**Query** Name the recorded Score Lact. for O=S(=O)(Nc1ccc(S(=O)(=O)C(F)F)cc1)c1ccc(Cl)cc1 .
**Result** 0.56

**Query** Return reported Score Lact.; argument: N#Cc1ccc(C(=O)N2CCC(Nc3ncnc4c3CCC4)C2)cc1 (centres unmarked)
**Result** 0.30
